# % INHIBITION of A20 murine B leukemia cell proliferation listing for each entry below
Tested on: A20 murine B leukemia cells
Method Description: Inhibition of A20 cell proliferation (MTT)
Format: cell-based
Condition Context: 100 μg/ml, 48 h
Method: Cells were seeded in 6 (1 ml/well), 24 (0.5 ml/well) or 96 (0.1 ml/well) well flat-bottom microplates and were maintained at 37° C. in a 5% CO2 atmosphere. […] Cell proliferation was measured using dimethylthiazol-diphenyl-tetrazolium (MTT) reduction (Mosman et al. J. Immunol. Methods 65:55, 1983). MTT was measured at a wavelength of 570 nm using a multiplate spectrophotometer reader (ELX800, Bio-TEK Instruments Inc., Winooski, Vt.). […]
Experimental Endpoint: % INHIBITION of A20 murine B leukemia cell proliferation (%)

Sequence	Tgt	Endpoint Value
TGTGTG [SEQ ID NO:9]	A20 murine B leukemia cells	22
TTGTTT [SEQ ID NO:26]	A20 murine B leukemia cells	15
GTGTGT [SEQ ID NO:10]	A20 murine B leukemia cells	9
GGTGGG [SEQ ID NO:24]	A20 murine B leukemia cells	9
GGGTGG [SEQ ID NO:25]	A20 murine B leukemia cells	11
TTTGTT [SEQ ID NO:23]	A20 murine B leukemia cells	5

###

Tested on: THP-1 human acute monocytic leukemia cells
Method Description: Cytokine production by THP-1 cells (ELISA)
Assay type: cell-based
Condition Context: THP-1, 1×10^6 cells, 100 μg/ml, 48 h; p70 complex and free p40
Quick rule for you: ↑ IL-12 (fold increase treated vs control cells) under 2 x gets Met, anything else gets Not met.

Substance	Tgt	Answer Label
GGAAGG (unmodified DNA) [SEQ ID NO:42]	THP-1 human acute monocytic leukemia cells	Not met
TCCATCGCCAAGGAGATCGAGCTGGAGGATCCGTACGAGAAGATC (unmodified DNA) [BCG A-3, reference compound]	THP-1 human acute monocytic leukemia cells	Met
AGGTGA [SEQ ID NO:31]	THP-1 human acute monocytic leukemia cells	Met
GsGoGoToGoGs	THP-1 human acute monocytic leukemia cells	Met
GTGTGT [SEQ ID NO:10 phosphorothioate]	THP-1 human acute monocytic leukemia cells	Met

###

System: rhesus monkey PBMCs
Method Description: Cytokine production by rhesus monkey PBMC (ELISA)
Format: cell-based
Condition Context: PBMC of 4 healthy rhesus monkeys, 100 μg/ml, 48 h
Experimental Endpoint: IL-10 fold increase: mean +/− SD

Sequence	Endpoint Value
TCGTTC [SEQ ID NO:37]	1.1 +/− 0.2 fold increase
GGGAGG (unmodified DNA) [SEQ ID NO:45]	1.1 +/− 0.1 fold increase
TGTGTG [SEQ ID NO:9]	1.1 +/− 0.2 fold increase
GGTTGG [SEQ ID NO:41]	1.9 +/− 1.5 fold increase
AAGTAA [SEQ ID NO:27]	0.9 +/− 0.1 fold increase
GGGTGG [SEQ ID NO:25]	1.0 +/− 0.1 fold increase
TTGTTT [SEQ ID NO:26]	1.0 +/− 0.1 fold increase
GGGCGG (unmodified DNA) [SEQ ID NO:46]	1.2 +/− 0.2 fold increase
ATGTAT (unmodified DNA) [SEQ ID NO:30]	1.9 +/− 1.4 fold increase
GGCCGG [SEQ ID NO:43]	1.0 +/− 0.2 fold increase
GTGTGT [SEQ ID NO:10]	1.3 +/− 0.1 fold increase
TTTGTT [SEQ ID NO:23]	1.0 +/− 0.1 fold increase
GGAAGG (unmodified DNA) [SEQ ID NO:42]	1.2 +/− 0.2 fold increase
GGTGGG [SEQ ID NO:24]	1.0 +/− 0.1 fold increase

###

System: CF-51 canine mammary gland cancer cells
Method Description: Inhibition of CF-51 cell proliferation (MTT)
Format: cell-based
Condition Context: 100 μg/ml, 48 h, 5×10^5 cells/ml
Experimental Endpoint: % INHIBITION of CF-51 canine mammary gland cancer cell proliferation

Sequence	Endpoint Value
TGTGTGTGTGTGTGTGTG (unmodified DNA) [SEQ ID NO:17]	8%
GTGTGTTTGGTGGTTTTGTTTGTTGTTTTTTTG (DNA, backbone not given here) [SEQ ID NO:66]	23%
AACCACAAGCCCAAC (DNA, backbone not given here) [SEQ ID NO:67]	20%
GGGTGG [SEQ ID NO:25]	14%
GTGTGTGTGTGTGTGTGTGTGTGTGTG [SEQ ID NO:1] (chemistry not given here)	23%
GTGTGT [SEQ ID NO:10]	15%

###

Tested on: human peripheral blood mononuclear cells
Method Description: Cytokine production by human PBMC (ELISA)
Assay type: cell-based
Condition Context: PBMC of 7 healthy humans, 100 μg/ml, 48 h
# IL-1 beta fold increase: mean +/− SD listing for each entry below
Experimental Endpoint: IL-1 beta fold increase: mean +/− SD

Sequence	Tgt	Experimental Endpoint	Endpoint Value
GGTTGG [SEQ ID NO:41]	human peripheral blood mononuclear cells	IL-1 beta fold increase: mean +/− SD	3.2 +/− 3.0 fold increase
ATGTAT (unmodified DNA) [SEQ ID NO:30]	human peripheral blood mononuclear cells	IL-1 beta fold increase: mean +/− SD	1.1 +/− 0.2 fold increase
GGAAGG (unmodified DNA) [SEQ ID NO:42]	human peripheral blood mononuclear cells	IL-1 beta fold increase: mean +/− SD	3.5 +/− 3.9 fold increase
GGGGGG [SEQ ID NO:44]	human peripheral blood mononuclear cells	IL-1 beta fold increase: mean +/− SD	7.1 +/− 9.4 fold increase
TGTGTG [SEQ ID NO:9]	human peripheral blood mononuclear cells	IL-1 beta fold increase: mean +/− SD	1.2 +/− 0.4 fold increase
GGGTGG [SEQ ID NO:25]	human peripheral blood mononuclear cells	IL-1 beta fold increase: mean +/− SD	1.0 +/− 0.1 fold increase
CCGTCC [SEQ ID NO:28]	human peripheral blood mononuclear cells	IL-1 beta fold increase: mean +/− SD	2.1 +/− 1.8 fold increase

###

Tested on: Jurkat human leukemia T cells
Method Description: Cell cycle stage in Jurkat cells (propidium iodide flow cytometry)
Assay type: cell-based
Condition Context: Jurkat, 24 h, 100 μg/ml
# % of cells in phase: SL listing for each entry below
Experimental Endpoint: % of cells in phase: SL

Sequence	Tgt	Endpoint Value
GTGTGTGTGTGTGTGTGT (unmodified DNA) [SEQ ID NO:18]	Jurkat human leukemia T cells	8.7%
TCCATCGCCAAGGAGATCGAGCTGGAGGATCCGTACGAGAAGATC (unmodified DNA) [BCG A-3, reference compound]	Jurkat human leukemia T cells	12.0%
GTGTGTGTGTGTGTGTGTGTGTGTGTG (DNA, backbone not given here; further chemistry not fully specified) [SEQ ID NO:1 phosphorothioate]	Jurkat human leukemia T cells	11.0%
TTAGGG (phosphodiester backbone) [SEQ ID NO:49, reference compound]	Jurkat human leukemia T cells	5.9%

###

# % of cells in phase: SL listing for each entry below
System: Jurkat human leukemia T cells
Method Description: Cell cycle stage in Jurkat cells (propidium iodide flow cytometry)
Assay type: cell-based
Condition Context: Jurkat, 24 h, 100 μg/ml
Experimental Endpoint: % of cells in phase: SL (%)

Sequence	Tgt	Endpoint Value
GGCCGG [SEQ ID NO:43]	Jurkat human leukemia T cells	10.7
GGGTGG [SEQ ID NO:25 phosphorothioate]	Jurkat human leukemia T cells	10.6
GGGTGGGTGGGTGGGTGGGTGGGTGGG [SEQ ID NO:2]	Jurkat human leukemia T cells	10.3

###

# % INHIBITION of THP-1 human acute monocytic leukemia cell proliferation listing for each entry below
Test system: THP-1 human acute monocytic leukemia cells
Method Description: Inhibition of THP-1 cell proliferation (MTT)
Format: cell-based
Condition Context: 100 μg/ml, 48 h, 1.6×10^6 cells/ml
Experimental Endpoint: % INHIBITION of THP-1 human acute monocytic leukemia cell proliferation (%)

Sequence	Endpoint Value
GTGTGT [SEQ ID NO:10]	11
GGGTGG [SEQ ID NO:25]	15
TTGTTT [SEQ ID NO:26]	1
TTTGTT [SEQ ID NO:23]	8
TGTGTG [SEQ ID NO:9]	0
GGTGGG [SEQ ID NO:24]	6

###

# IL-1 beta fold increase: mean +/− SD listing for each entry below
Tested on: human peripheral blood mononuclear cells
Method Description: Cytokine production by human PBMC (ELISA)
Format: cell-based
Condition Context: PBMC of 7 healthy humans, 100 μg/ml, 48 h
Experimental Endpoint: IL-1 beta fold increase: mean +/− SD

Sequence	Experimental Endpoint	Endpoint Value
GGTGGG [SEQ ID NO:24]	IL-1 beta fold increase: mean +/− SD	0.9 +/− 0.1 fold increase
AAGTAA [SEQ ID NO:27]	IL-1 beta fold increase: mean +/− SD	1.3 +/− 0.5 fold increase
CTGTCT [SEQ ID NO:36]	IL-1 beta fold increase: mean +/− SD	1.2 +/− 0.3 fold increase
GTGTGTGTGTGT [SEQ ID NO:14]	IL-1 beta fold increase: mean +/− SD	1.1 +/− 0.2 fold increase
GTGTGT [SEQ ID NO:10]	IL-1 beta fold increase: mean +/− SD	2.0 +/− 1.6 fold increase
GGCCGG [SEQ ID NO:43]	IL-1 beta fold increase: mean +/− SD	1.5 +/− 0.9 fold increase
GGGAGG (unmodified DNA) [SEQ ID NO:45]	IL-1 beta fold increase: mean +/− SD	13.6 +/− 14.9 fold increase
TGGTTG [SEQ ID NO:29]	IL-1 beta fold increase: mean +/− SD	1.7 +/− 1.0 fold increase
TGTGTGTGTGTG [SEQ ID NO:13]	IL-1 beta fold increase: mean +/− SD	2.4 +/− 1.9 fold increase
TCGTTC [SEQ ID NO:37]	IL-1 beta fold increase: mean +/− SD	1.2 +/− 0.4 fold increase
TTGTTT [SEQ ID NO:26]	IL-1 beta fold increase: mean +/− SD	1.5 +/− 0.9 fold increase
GGGCGG (unmodified DNA) [SEQ ID NO:46]	IL-1 beta fold increase: mean +/− SD	1.2 +/− 0.3 fold increase
TTTGTT [SEQ ID NO:23]	IL-1 beta fold increase: mean +/− SD	1.0 +/− 0.1 fold increase
